I'd be grateful if you could share measured Approximate Solubility (mg/mL) in Excipient: Sesame oil for these entries.
Assay: Solubility determination in oil (cottonseed oil, sesame oil)
Conditions: Sesame oil; heating temp. 60 °C, obs. temp. 25 °C

| SAMPLE SMILES | REPORTED |
| --- | --- |
| C=C1CC[C@@]2(O)C3Cc4ccc(OC(=O)CCCCCCC/C=C/CCCCCCCC)c5c4[C@@]2(CCN3CC2CC2)[C@H]1O5 | >396.5 mg/mL |
| C=C1CC[C@@]2(O)C3Cc4ccc(OC(=O)OCCCCCCCCCCCCCCCCCC)c5c4[C@@]2(CCN3CC2CC2)[C@H]1O5 | <51 mg/mL |
| CCCCCCCCCCCCOC(=O)Oc1ccc2c3c1O[C@H]1C(=O)CC[C@@]4(O)C(C2)N(CC2CC2)CC[C@]314 | <50 mg/mL |

Dear reader, for each entry below, please note its Approximate Solubility (mg/mL) in Excipient: Sesame oil.
1. C=C1CC[C@@]2(O)C3Cc4ccc(OC(=O)OCCCCCCCCCCCCC)c5c4[C@@]2(CCN3CC2CC2)[C@H]1O5
2. CCCCCCCCCCCCCC(=O)Oc1ccc2c3c1O[C@H]1C(=O)CC[C@@]4(O)C(C2)N(CC2CC2)CC[C@]314
3. C=C1CC[C@@]2(O)C3Cc4ccc(OC(=O)CCCCCCC/C=C\CCCCCCCC)c5c4[C@@]2(CCN3CC2CC2)[C@H]1O5

Result:
252.55 to 398.6 mg/mL
>417.3 mg/mL
>408 mg/mL
